Molecular target: full length pHrodo-labelled aggregated (P301S) 2N4R tau (human, UniProt P10636 1-758, labelled with pHrodo Red Maleimide); also: test concentration or dose not given here
Sequence (P10636 other isoform, or with tags, fused parts or gaps P301S P301S): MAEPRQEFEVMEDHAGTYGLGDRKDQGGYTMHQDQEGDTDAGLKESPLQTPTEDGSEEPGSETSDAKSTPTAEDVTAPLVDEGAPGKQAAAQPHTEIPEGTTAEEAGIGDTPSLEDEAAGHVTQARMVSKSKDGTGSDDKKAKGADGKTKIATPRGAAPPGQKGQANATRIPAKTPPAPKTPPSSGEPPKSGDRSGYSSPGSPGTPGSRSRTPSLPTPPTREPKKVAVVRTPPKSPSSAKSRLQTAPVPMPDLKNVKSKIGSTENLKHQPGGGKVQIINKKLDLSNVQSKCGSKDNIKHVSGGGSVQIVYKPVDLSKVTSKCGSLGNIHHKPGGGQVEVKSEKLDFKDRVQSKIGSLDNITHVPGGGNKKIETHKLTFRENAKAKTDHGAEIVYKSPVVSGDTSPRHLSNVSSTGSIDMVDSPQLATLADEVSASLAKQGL
Experiment: cell-based or functional assay
Reported Property: inhibition of uptake of aggregated tau into human iPSC-derived neurons (% inhibition)

{"Binder": "Clone 32 (VH5Vκ4), humanised variant of clone #28, human IgG1 (antibody, V domains shown, also called VH5VK4; VH5Vk4) VH: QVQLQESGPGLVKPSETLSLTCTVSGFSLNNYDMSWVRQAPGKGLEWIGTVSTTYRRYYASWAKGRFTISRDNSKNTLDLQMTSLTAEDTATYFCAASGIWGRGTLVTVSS VL: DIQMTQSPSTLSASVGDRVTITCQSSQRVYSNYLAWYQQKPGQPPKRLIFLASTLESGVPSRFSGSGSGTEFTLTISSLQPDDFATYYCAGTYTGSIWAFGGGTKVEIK", "Observed Result": 41.3}
{"Binder": "Clone 27 (VH4Vκ2), humanised variant of clone #28, human IgG1 (antibody, V domains shown, also called VH4VK2; VH4Vk2) VH: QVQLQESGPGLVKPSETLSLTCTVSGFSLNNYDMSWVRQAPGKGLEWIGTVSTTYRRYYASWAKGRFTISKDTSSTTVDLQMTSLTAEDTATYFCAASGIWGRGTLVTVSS VL: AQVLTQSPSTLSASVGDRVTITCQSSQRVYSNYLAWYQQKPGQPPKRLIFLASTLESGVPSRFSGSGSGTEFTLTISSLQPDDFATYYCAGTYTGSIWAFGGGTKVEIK", "Observed Result": 58.7}
